// reported viability at 28.5 h, 10 µM per item
# METHOD NOTES: in vitro
# ASSAY CONTEXT: human, hela cells, % viability

| MOLECULE | DISPLAY UNIT | viability at 28.5 h, 10 µM |
| --- | --- | --- |
| Cc1cc(C(=O)N2CCCC(c3ccc(Cc4ccc(Cl)cc4)cn3)C2)nc(N(C)C)n1 (centres unmarked) [CBK286036] | % | 116 |
| CC(C)(C)c1ccc(O)c(NC(=S)NC(=O)c2cccc(OCc3ccccc3)c2)c1 [CBK269018] | % | 97.3 |
| CN1CCN(CC(=O)Nc2cc(C(F)(F)F)ccc2Cl)C(C)(C)C1 [CBK306363] | % | 85.8 |
| COc1ccc([C@]23CN(C)C[C@H]2CCN(C(=O)Nc2ccc(Cl)c(F)c2)C3)cc1OC [CBK081140T] | % | 98.3 |
| Cc1cn(C(C)(C)C(=O)N2CCOCC2)nc1-c1ccccc1Cl [CBK005206] | % | 85.9 |
| O=C(Nc1ccc(S(=O)(=O)NCc2ccncc2)cc1)c1ccccc1Cl [CBK269664] | % | 91.5 |
| O=C(N1CCOCC1)N1CCN(c2cncc(-c3ccc(O)cc3)n2)CC1 [CBK126946T] | % | 96.6 |
| CNc1snc(N2CCOCC2)c1C#N [CBK011453] | % | 93 |
| CCc1cccc(NC(=O)NCCC2=CCCCC2)c1 [CBK045009] | % | 108 |
| Cc1cnc(CNC(=O)N2CCN(CCN3CCOCC3)CC2)cn1 [CBK155673] | % | 95.2 |
| COc1ccc(Cc2c(C)nc3c(C(=O)NCCSC)cnn3c2C)cc1 [CBK162191] | % | 111 |
| O=C(NCCNc1cnccn1)c1ccc(Br)cc1F [CBK305639] | % | 89.5 |
| Cc1csc(C(Cc2cccs2)NC(=O)CN(C)C)n1 (centres unmarked) [CBK285124] | % | 97.9 |
| Cc1n[nH]c(C)c1CCC(=O)N/N=C/c1ccc(Cl)cc1Cl [CBK262901] | % | 86.6 |
| Cc1[nH]c2ccccc2c1C(=O)C(=O)Nc1ccc(C#N)cc1 [CBK269896] | % | 84.6 |
| CC(C)Cc1ccc(-c2cc(Nc3ccc(O)cc3)ncn2)cc1 [CBK090754] | % | 93.6 |
| COc1ccccc1OCc1ccc(C(=O)N2CCN(c3cccc(C(F)(F)F)c3)CC2)o1 [CBK074417] | % | 62.7 |
| O=C(Nc1cccc(C(F)(F)F)c1)c1cnsn1 [CBK018923] | % | 88.9 |
| CCOC(=O)C1=C(C)Nc2nc(C)nc(Cl)c2O1 [CBK021504] | % | 103 |
| CC1CCc2c(sc3ncnc(OCC(=O)NC4CCCC4)c23)C1 (centres unmarked) [CBK305893] | % | 83.1 |

---

# METHOD NOTES: in vitro
# ASSAY CONTEXT: human, hela cells, % viability
ASSAY ENDPOINT: viability at 28.5 h, 10 µM (%)

| MOLECULE | EXPERIMENTAL VALUE |
| --- | --- |
| O=CN1CCc2c([nH]c3ccccc23)C12CCCN(Cc1ccc(C(F)(F)F)cc1)C2 (centres unmarked) | 92.6 |
| CC(=O)Nc1cccc(C(=O)OCC(=O)N2CCCC2)c1 | 91.6 |
| Nc1ccc(C(=O)Nc2ccc(Nc3cc(-c4cc(C(F)(F)F)cc(C(F)(F)F)c4)ncn3)cc2)cc1 | 94.8 |
| Cc1ccc2nc(NCc3ccco3)c(/C=N/Cc3ccco3)c(=O)n2c1 | 80.4 |
| CCCNC(=O)CN(C)Cc1nc(-c2cccc(C(F)(F)F)c2)no1 | 103 |
| CCOc1ccc(-c2cncc(Nc3cccc(C(F)(F)F)c3)n2)cc1 | 50 |
| CCOC(=O)c1c(NC(=O)CN2CC(C)OC(C)C2)sc2c1CCC(C)C2 (centres unmarked) | 107 |
| Cc1ccnc2nc(C(=O)Nc3ccc4c(c3)CCC4)nn12 | 74.9 |
| Cn1c(Cc2csc(N)n2)nnc1SCC(=O)NC1CCCCC1 | 84.3 |
| CC(NC(=O)N1CCSCC1)c1ccc2c(c1)CC(=O)N2 (centres unmarked) | 96.7 |
| O=C(NC(=S)Nc1ccc(-c2nc3ccccc3o2)c(O)c1)c1cncc(Br)c1 | 97 |
| CCOc1cccc(NC(=O)/C(C#N)=C\c2cc(C)n(-c3cccc(C(=O)O)c3)c2C)c1 | 115 |
| CC(C)[C@@H](CO)Nc1cncc(-c2cccc(CO)c2)n1 | 95.2 |
| O=C(NCc1cccs1)NC1CCCc2c1cnn2CCO (centres unmarked) | 100 |
| NC(=O)COc1ccc(CNC(=O)CN2CCc3sccc3C2)cc1 | 99.4 |
| CC(=O)c1ccc(-c2nc(NS(C)(=O)=O)cc3cccnc23)cc1 | 96.3 |
| CC(C)C[C@@H]1N[C@H](C(=O)N2CCN(c3ncccn3)CC2)Cc2cn(C)c3cccc1c23 | 84.2 |
| COc1cc(NC(=O)c2cc3c4c(sc3nc2N)CN(C)CC4)c(OC)c(OC)c1 | 77.1 |
| CN1CCN(C(=O)CNC(=O)CNS(=O)(=O)c2ccccc2)CC1 | 90.9 |
| CCCN(CC1CC1)C1CCc2cccc(C(N)=O)c2C1 (centres unmarked) | 114 |
| COc1ccccc1-c1nc(C2CCCN2C(=O)N[C@@H](C)c2ccccc2)n2ccccc12 (some centres unmarked) | 109 |
| Cc1ccc(-c2nc(C)sc2CC(=O)N(C)CCN(C)C)cc1 | 112 |
| Cc1nn(-c2ccccc2)c2[nH]c(=O)c(CNC(C)C)cc12 | 93.1 |
| O=C(NCCc1ccc(Cl)cc1)C1(Cc2cccc(-c3cccnc3)c2)CCOCC1 | 96.7 |
| CN(c1ncccc1CNC(=O)c1c[nH]c(=O)c(Cl)c1)C1CCCCC1 | 92.6 |
| O=c1c2nnc3ncnn3c2ccn1-c1ccccc1 | 99.5 |
| COc1ccc(-c2cc(C(F)(F)F)nc(SCC(=O)N3CCN(C)CC3)n2)cc1OC | 96.1 |
| COc1ccc(C(NC(=O)C2CCN(CCOc3ccc4ccccc4c3)CC2)c2ccccc2C)cn1 (centres unmarked) | 73.1 |
| O=S(=O)(Nc1cc(OC2CCCNC2)c2occc2c1)c1cc(F)ccc1F (centres unmarked) [CBK073996C] | 105 |
| CC(=O)N1CCN(C(C(=O)O)c2c[nH]c3cc(NC(=O)c4ccccc4)ccc23)CC1 (centres unmarked) | 84.9 |
| O=C(c1ccc2cc[nH]c2c1)N1CCN(CC2CCOC2)CC1 (centres unmarked) | 99.2 |
| COc1cc(C)ccc1S(=O)(=O)Nc1cc(OC2CCNCC2)c2occc2c1 [CBK074192C] | 98.6 |
| c1ccc2nc3c(nc2c1)sc1nc2ccccc2n13 | 104 |
| FC(F)(F)c1nc2ccccc2nc1OCCc1c[nH]c2ccccc12 | 93.2 |
| COc1ccc2[nH]c(SCC(=O)O)nc2c1 | 91 |
| c1ccc2c(CNCCN3CCOCC3)cccc2c1 [CBK278156C] | 90.9 |
| O=C(O)c1nn2c(C(F)(F)F)cc(-c3cccs3)nc2c1Cl | 95.4 |
| COc1ccc(/C=C/C(=O)O)cc1S(=O)(=O)N1CCOCC1 | 101 |

All figures here come from paper PMC12040169.
